Assay: Study GS-US-200-4072: pharmacokinetics in participants living with HIV
Format: in vivo, human
Details: both, human, plasma, sc, 450 mg
assay readout: concentration at 9 day (ng/mL)
Output spec: scalar in ng/mL, unitless text.

[ask] Which concentration at 9 day is reported for this molecule? CC(C)(C#Cc1ccc(-c2ccc(Cl)c3c(NS(C)(=O)=O)nn(CC(F)(F)F)c23)c([C@H](Cc2cc(F)cc(F)c2)NC(=O)Cn2nc(C(F)(F)F)c3c2C(F)(F)[C@@H]2C[C@H]32)n1)S(C)(=O)=O
[reply] 38.2

###

Type: in vivo, human
Conditions: both, human, plasma, sc, 300 mg
assay readout: half-life (days)
Value expressed in days; do not type the unit.

[ask] Item under review: CC(C)(C#Cc1ccc(-c2ccc(Cl)c3c(NS(C)(=O)=O)nn(CC(F)(F)F)c23)c([C@H](Cc2cc(F)cc(F)c2)NC(=O)Cn2nc(C(F)(F)F)c3c2C(F)(F)[C@@H]2C[C@H]32)n1)S(C)(=O)=O [GS-6207] . Reported half-life?
[reply] 45.4

###

Assay: Cytotoxicity assay
Type: cell-based
Settings: human, Huh-7 cells
assay readout: CC50 (µM)
Enter your answer as a number in µM; do not include the unit.

[ask] Reported CC50, compound COc1ccc(C[C@H](N)C(=O)N[C@H]2[C@@H](O)[C@H](n3cnc4c(N(C)C)ncnc43)O[C@@H]2CO)cc1 [Puromycin, reference compound] : ____
[reply] 0.5

###

Experiment: Cytotoxicity assay
Format: cell-based
Settings: human, Gal-PC-3 cells
assay readout: CC50 (µM)
Supply the numeric figure in µM, leaving out any unit text.

[ask] Which CC50 reading was recorded for the compound COc1ccc(C[C@H](N)C(=O)N[C@H]2[C@@H](O)[C@H](n3cnc4c(N(C)C)ncnc43)O[C@@H]2CO)cc1 [Puromycin, reference compound] ?
[reply] 0.4

###

Test: Cytotoxicity assay
Assay type: cell-based
Conditions: human, MRC-5 cells
assay readout: CC50 (nM)
Answer in nM, number only, no unit symbol.

[ask] Any idea what its CC50 is? The compound is COc1ccc(C[C@H](N)C(=O)N[C@H]2[C@@H](O)[C@H](n3cnc4c(N(C)C)ncnc43)O[C@@H]2CO)cc1 [Puromycin, reference compound]
[reply] 300

###

Assay: Cytotoxicity assay
Type: cell-based
Conditions: human, primary CD4+ T-lymphocytes
assay readout: CC50 (µM)
// return numeric value only (unit: µM, not printed)

[ask] Please report the recorded CC50 for COc1ccc(C[C@H](N)C(=O)N[C@H]2[C@@H](O)[C@H](n3cnc4c(N(C)C)ncnc43)O[C@@H]2CO)cc1 [Puromycin, reference compound] .
[reply] 0.2

###

Type: in vivo, human
Conditions: both, human, plasma, sc, 450 mg
assay readout: half-life (days)
// units = days; emit number, no label

[ask] Fill in: half-life of CC(C)(C#Cc1ccc(-c2ccc(Cl)c3c(NS(C)(=O)=O)nn(CC(F)(F)F)c23)c([C@H](Cc2cc(F)cc(F)c2)NC(=O)Cn2nc(C(F)(F)F)c3c2C(F)(F)[C@@H]2C[C@H]32)n1)S(C)(=O)=O is ___
[reply] 39.7

###

Format: in vivo, human
Details: both, human, plasma, sc, 300 mg
assay readout: AUC(0-t) (ng·h/mL)
Give the quantity in ng·h/mL, number only.

[ask] Need AUC(0-t), item CC(C)(C#Cc1ccc(-c2ccc(Cl)c3c(NS(C)(=O)=O)nn(CC(F)(F)F)c23)c([C@H](Cc2cc(F)cc(F)c2)NC(=O)Cn2nc(C(F)(F)F)c3c2C(F)(F)[C@@H]2C[C@H]32)n1)S(C)(=O)=O
[reply] 73100

###

Assay: Cytotoxicity assay
Type: cell-based
Conditions: human, primary human hepatocytes
assay readout: CC50 (µM)
# unit: µM | format: bare number

[ask] Which value of CC50 has been reported for COc1ccc(C[C@H](N)C(=O)N[C@H]2[C@@H](O)[C@H](n3cnc4c(N(C)C)ncnc43)O[C@@H]2CO)cc1 [Puromycin, reference compound] in the records?
[reply] 1.6

###

Assay: Cytotoxicity assay
Type: cell-based
Conditions: human, MT-4 cells
assay readout: CC50 (µM)
Report only the number, with the unit µM understood.

[ask] Given COc1ccc(C[C@H](N)C(=O)N[C@H]2[C@@H](O)[C@H](n3cnc4c(N(C)C)ncnc43)O[C@@H]2CO)cc1 [Puromycin, reference compound] , state its recorded CC50.
[reply] 0.2

[ask] # CC50 lookup, item CC(C)(C#Cc1ccc(-c2ccc(Cl)c3c(NS(C)(=O)=O)nn(CC(F)(F)F)c23)c([C@H](Cc2cc(F)cc(F)c2)NC(=O)Cn2nc(C(F)(F)F)c3c2C(F)(F)[C@@H]2C[C@H]32)n1)S(C)(=O)=O
[reply] 24.7

###

Type: in vivo, human
Details: both, human, plasma, sc, 30 mg
assay readout: Cmax (ng/mL)
The figure you give is taken to be in ng/mL; do not add the unit.

[ask] Would you kindly share the measured Cmax for CC(C)(C#Cc1ccc(-c2ccc(Cl)c3c(NS(C)(=O)=O)nn(CC(F)(F)F)c23)c([C@H](Cc2cc(F)cc(F)c2)NC(=O)Cn2nc(C(F)(F)F)c3c2C(F)(F)[C@@H]2C[C@H]32)n1)S(C)(=O)=O ?
[reply] 3.2

###

Format: in vivo, human
Details: both, human, plasma, sc, 450 mg
assay readout: Cmax (ng/mL)
Please reply with the bare figure in ng/mL and do not write the unit itself.

[ask] What does the data say about its Cmax? Entry: CC(C)(C#Cc1ccc(-c2ccc(Cl)c3c(NS(C)(=O)=O)nn(CC(F)(F)F)c23)c([C@H](Cc2cc(F)cc(F)c2)NC(=O)Cn2nc(C(F)(F)F)c3c2C(F)(F)[C@@H]2C[C@H]32)n1)S(C)(=O)=O [GS-6207]
[reply] 58.4

###

Assay: Cytotoxicity assay
Format: cell-based, human
Details: human, stimulated PBMCs
assay readout: CC50 (nM)
Give the quantity in nM, number only.

[ask] // query CC50 value for entry COc1ccc(C[C@H](N)C(=O)N[C@H]2[C@@H](O)[C@H](n3cnc4c(N(C)C)ncnc43)O[C@@H]2CO)cc1 [Puromycin, reference compound]
[reply] 200

###

Format: in vivo, human
Conditions: both, human, plasma, sc, 450 mg
assay readout: Tmax (days)
I only need the number, in days, no unit after it.

[ask] Form field: reported Tmax of CC(C)(C#Cc1ccc(-c2ccc(Cl)c3c(NS(C)(=O)=O)nn(CC(F)(F)F)c23)c([C@H](Cc2cc(F)cc(F)c2)NC(=O)Cn2nc(C(F)(F)F)c3c2C(F)(F)[C@@H]2C[C@H]32)n1)S(C)(=O)=O
[reply] 14

###

Format: in vivo, human
Details: both, human, plasma, sc, 300 mg
assay readout: Cmax (ng/mL)
State the answer as a number, implicitly in ng/mL.

[ask] Need Cmax of CC(C)(C#Cc1ccc(-c2ccc(Cl)c3c(NS(C)(=O)=O)nn(CC(F)(F)F)c23)c([C@H](Cc2cc(F)cc(F)c2)NC(=O)Cn2nc(C(F)(F)F)c3c2C(F)(F)[C@@H]2C[C@H]32)n1)S(C)(=O)=O , thanks.
[reply] 47.9

###

Format: in vivo, human
Conditions: both, human, plasma, sc, 100 mg
assay readout: half-life (days)
Respond numerically; units are days and should not be typed.

[ask] Give the measured half-life of CC(C)(C#Cc1ccc(-c2ccc(Cl)c3c(NS(C)(=O)=O)nn(CC(F)(F)F)c23)c([C@H](Cc2cc(F)cc(F)c2)NC(=O)Cn2nc(C(F)(F)F)c3c2C(F)(F)[C@@H]2C[C@H]32)n1)S(C)(=O)=O [GS-6207] .
[reply] 31.9
